- Measurement target: Recombinant mouse PD-L1 (Mus musculus, UniProt Q9EP73)
- Construct: Fc (Fc chimera); purchased R&D Systems 1019-B7-100
- Sequence (Q9EP73 19-238 limits assumed): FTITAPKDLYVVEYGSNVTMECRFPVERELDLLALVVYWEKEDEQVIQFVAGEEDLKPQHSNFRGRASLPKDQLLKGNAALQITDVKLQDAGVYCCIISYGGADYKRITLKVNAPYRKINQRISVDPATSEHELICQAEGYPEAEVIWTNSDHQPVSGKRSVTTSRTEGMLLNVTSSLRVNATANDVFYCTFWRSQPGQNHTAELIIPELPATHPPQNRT
- Assay details: Rescue of mouse splenocyte proliferation in the presence of recombinant PD-L1 (CFSE proliferation assay)
- Assay type: cell-based
- Particulars: 100 nM compound; anti-CD3/CD28 stimulated mouse splenocytes + PD-L1; 72 h; stimulated splenocytes = 100%; read-out: PDL1 (rescue of proliferation @ 100 nM)
Is activation at 0.1 µM at least 80%? Then TRUE. If not, FALSE.

INSERT INTO measurements (molecule, category) VALUES
  ('CN[C@@H](CO)c1noc([C@H](CC(N)=O)NC(=O)N[C@H](C(=O)O)C(C)O)n1 (stereo partly shown) [Compound 6]', 'FALSE');

Asked: Reported activation at 0.1 µM reaches at least 80% for CC(O)[C@H](NC(=O)N[C@@H](CC(N)=O)c1nc([C@@H](N)CCCCN)no1)C(=O)O (stereo partly shown) [Compound 7] ?
Given back: TRUE

Asked: Reported activation at 0.1 µM reaches at least 80% for CC(O)[C@H](NC(=O)N[C@@H](CC(N)=O)c1nc([C@@H](N)C(C)O)no1)C(=O)O (stereo partly shown) [Compound 2] ?
Given back: FALSE

Asked: Reported activation at 0.1 µM reaches at least 80% for CC(O)[C@@H](NC(=O)N[C@@H](CC(N)=O)c1nc([C@H](N)CO)no1)C(=O)O (stereo partly shown) [Compound 23] ?
Given back: FALSE

Asked: Reported activation at 0.1 µM reaches at least 80% for CC(O)[C@H](NC(=O)N[C@H](CC(N)=O)c1nc([C@H](N)CO)no1)C(=O)O (stereo partly shown) [Compound 24] ?
Given back: FALSE

Asked: Reported activation at 0.1 µM reaches at least 80% for CC(O)[C@@H](NC(=O)N[C@H](CC(N)=O)c1nc([C@H](N)CO)no1)C(=O)O (stereo partly shown) [Compound 22] ?
Given back: TRUE

* * *

Catalogue of molecules with associated activation at 0.1 µM
- Measurement target: Recombinant mouse PD-L1 (Mus musculus)
- Construct: Fc (Fc chimera); purchased R&D Systems 1019-B7-100
- Assay details: Rescue of mouse splenocyte proliferation in the presence of recombinant PD-L1 (CFSE proliferation assay)
- Assay type: cell-based
- Particulars: 100 nM compound; anti-CD3/CD28 stimulated mouse splenocytes + PD-L1; 72 h; stimulated splenocytes = 100%; read-out: PDL1 (rescue of proliferation @ 100 nM)
Only the number, expressed in %, is required.

Check out these entries, answers already filled in.
INSERT INTO measurements (molecule, recorded_measurement) VALUES
  ('N[C@@H](CO)c1noc([C@H](CC(=O)O)NC(=O)N[C@@H](CO)C(=O)O)n1', 91),
  ('N[C@@H](Cc1cnc[nH]1)c1noc([C@H](CC(=O)O)NC(=O)N[C@@H](CO)C(=O)O)n1', 59),
  ('CC(O)[C@H](NC(=O)N[C@@H](Cc1cc2ccccc2[nH]1)c1nc([C@@H](N)CO)no1)C(=O)O (stereo partly shown)', 60),
  ('CC(O)[C@H](NC(=O)N[C@@H](CC(N)=O)c1nc(C2(N)CCCCC2)no1)C(=O)O (stereo partly shown)', 86),
  ('CC(O)[C@H](NC(=O)N[C@@H](CC(N)=O)c1nc([C@@H](N)CO)no1)C(=O)O (stereo partly shown)', 97);

Asked: Request: activation at 0.1 µM, test system Recombinant mouse PD-L1 (Mus musculus), entry CC(O)[C@H](NC(=O)N[C@@H](CC(N)=O)c1nc([C@H](N)CO)no1)C(=O)O (stereo partly shown)
Given back: 64

Asked: Request: activation at 0.1 µM, test system Recombinant mouse PD-L1 (Mus musculus), entry CC(O)[C@H](NC(=O)N[C@@H](CC(=O)O)c1nc([C@@H](N)CCCNC(=N)N)no1)C(=O)O (stereo partly shown)
Given back: 70
